# ASSAY METHOD TEXT: GSNO thermal decomposition via UV-Vis absorption spectroscopy
# Format: physicochemical
# EXPERIMENTAL SETUP: phosphate buffer; room temperature, 0.05 M GSNO in 0.05 M PB pH 7.4, with 0.15 M αCD
VALUE KIND: half-life at 0.05 M

## Input Assign half-life at 0.05 M to the following record: N[C@@H](CCC(=O)N[C@@H](CSN=O)C(=O)NCC(=O)O)C(=O)O [GSNO, S-nitrosoglutathione]
## Output ~20 days
